Reference source for all entries: ChEMBL document CHEMBL1961873

# assay-target: Angiopoietin-1 receptor (Homo sapiens) (UniProt Q02763)
# Sequence (Q02763 whole entry): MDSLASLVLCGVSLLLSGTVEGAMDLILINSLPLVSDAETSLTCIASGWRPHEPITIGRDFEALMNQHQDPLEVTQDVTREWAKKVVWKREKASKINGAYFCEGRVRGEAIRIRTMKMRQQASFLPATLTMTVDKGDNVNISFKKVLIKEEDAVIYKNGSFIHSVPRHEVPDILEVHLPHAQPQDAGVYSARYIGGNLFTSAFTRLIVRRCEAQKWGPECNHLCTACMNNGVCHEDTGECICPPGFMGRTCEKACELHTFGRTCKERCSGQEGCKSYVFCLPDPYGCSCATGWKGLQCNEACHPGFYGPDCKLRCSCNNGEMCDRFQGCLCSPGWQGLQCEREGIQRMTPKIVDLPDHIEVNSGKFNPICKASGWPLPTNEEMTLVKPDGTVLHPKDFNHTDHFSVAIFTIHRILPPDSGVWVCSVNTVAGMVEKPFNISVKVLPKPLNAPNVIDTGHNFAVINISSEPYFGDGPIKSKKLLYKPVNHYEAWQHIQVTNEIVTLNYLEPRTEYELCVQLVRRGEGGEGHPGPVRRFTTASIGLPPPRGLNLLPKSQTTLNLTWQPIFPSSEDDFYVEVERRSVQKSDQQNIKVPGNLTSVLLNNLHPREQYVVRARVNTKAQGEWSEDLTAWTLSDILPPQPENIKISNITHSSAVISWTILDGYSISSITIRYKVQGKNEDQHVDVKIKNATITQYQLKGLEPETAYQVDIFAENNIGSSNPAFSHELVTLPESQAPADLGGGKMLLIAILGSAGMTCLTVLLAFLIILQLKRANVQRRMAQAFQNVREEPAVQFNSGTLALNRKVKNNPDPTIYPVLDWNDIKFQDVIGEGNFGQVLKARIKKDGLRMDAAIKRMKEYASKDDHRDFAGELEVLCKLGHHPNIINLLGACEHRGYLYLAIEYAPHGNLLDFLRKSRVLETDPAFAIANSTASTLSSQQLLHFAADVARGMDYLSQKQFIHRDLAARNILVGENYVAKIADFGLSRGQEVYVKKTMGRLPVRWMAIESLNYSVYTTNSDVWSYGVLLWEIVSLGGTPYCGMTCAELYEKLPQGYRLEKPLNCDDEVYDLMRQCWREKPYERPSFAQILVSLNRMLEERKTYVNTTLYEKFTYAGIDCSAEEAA
# condition-parameters: at 1 µM
Attribute: inhibition
Report the figure in % without appending any unit label.

Known results for compounds:
compound | numeric-readout
c1ccc(Oc2ccc(Nc3ncc(-c4ccccc4)o3)cc2)cc1 | 1.44
Nc1nccc(-c2c(-c3ccc(F)cc3)ncn2C2CCC(O)CC2)n1 (stereo not given) | 4.5
Cc1ccc(C(=O)NC2CCC2)cc1-c1ccc(C(=O)NCC2CC2)cc1 | 1.2
COc1ccc2cc(-c3c(-c4ccncc4)nc(-c4ccc([S+](C)[O-])cc4C)n3C)ccc2c1 (stereo not given) | 82.2

Kindly review the next compound as well.
stdin: Requested read-out inhibition, target or system Angiopoietin-1 receptor (Homo sapiens) (UniProt Q02763), entry COc1ccc(-c2ccc3c(NC(=O)C4CC4)n[nH]c3n2)cc1;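 also: reported value is the mean TIE2 inhibition from the GSK PKIS dataset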
stdout: 5.88

====

# assay-target: MAP/microtubule affinity-regulating kinase 4 (Homo sapiens) (UniProt Q96L34);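 also: values are averaged percent inhibition of MARK4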
# Sequence (whole entry): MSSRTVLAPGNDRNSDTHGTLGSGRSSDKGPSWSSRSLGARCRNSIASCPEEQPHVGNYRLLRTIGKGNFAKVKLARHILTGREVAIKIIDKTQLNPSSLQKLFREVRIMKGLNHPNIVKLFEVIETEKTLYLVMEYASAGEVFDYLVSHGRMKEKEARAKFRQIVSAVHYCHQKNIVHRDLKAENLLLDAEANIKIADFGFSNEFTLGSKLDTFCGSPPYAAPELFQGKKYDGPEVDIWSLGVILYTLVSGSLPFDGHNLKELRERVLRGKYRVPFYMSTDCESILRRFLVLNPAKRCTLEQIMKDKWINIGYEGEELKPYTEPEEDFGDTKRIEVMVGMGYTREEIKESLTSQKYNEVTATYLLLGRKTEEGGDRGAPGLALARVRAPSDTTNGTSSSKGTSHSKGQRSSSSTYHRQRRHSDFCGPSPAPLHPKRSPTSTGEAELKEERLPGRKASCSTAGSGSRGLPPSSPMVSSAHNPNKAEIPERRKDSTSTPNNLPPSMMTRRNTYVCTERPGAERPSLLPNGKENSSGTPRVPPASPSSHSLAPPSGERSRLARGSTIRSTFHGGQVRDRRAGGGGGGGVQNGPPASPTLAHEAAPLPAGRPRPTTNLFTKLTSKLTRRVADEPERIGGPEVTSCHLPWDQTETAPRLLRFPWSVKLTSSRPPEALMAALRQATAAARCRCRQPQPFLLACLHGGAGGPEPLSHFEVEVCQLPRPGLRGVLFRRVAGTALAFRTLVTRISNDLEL
# condition-parameters: at 0.1 µM
Attribute: inhibition
Report the figure in % without appending any unit label.

Known results for compounds:
structure | assay-target | readout-type | unit-text | numeric-readout
CN(C)CCOc1ccc(-c2cc(-c3ccc4c(c3)CCC4=NO)c(-c3ccncc3)o2)cc1 | MAP/microtubule affinity-regulating kinase 4 (Homo sapiens) (UniProt Q96L34) | inhibition | % | -0.26
NC(=O)c1cc(-c2ccncc2)cc(-c2ccccc2)c1N | MAP/microtubule affinity-regulating kinase 4 (Homo sapiens) (UniProt Q96L34) | inhibition | % | 2.69

stdin: // returns reported inhibition for input CS(=O)(=O)CCNCc1cc(-c2cc3c(Nc4ccc(OCc5cccc(F)c5)c(Cl)c4)ncnc3s2)cs1
stdout: 1.63

stdin: // returns reported inhibition for input CCc1cccc(CC)c1/C=C/c1cncc(C(=O)NC)c1
stdout: 0.15

stdin: // returns reported inhibition for input NCc1ccc(-n2c(-c3nonc3N)nc3cnccc32)cc1
stdout: 4.49

stdin: // returns reported inhibition for input O=C(Nc1n[nH]c2cc(-c3ccccc3)ccc12)C1CC1
stdout: 2.2

====

# assay-target: MAP kinase-activated protein kinase 5 (Homo sapiens) (UniProt Q8IW41)
# Sequence (whole entry): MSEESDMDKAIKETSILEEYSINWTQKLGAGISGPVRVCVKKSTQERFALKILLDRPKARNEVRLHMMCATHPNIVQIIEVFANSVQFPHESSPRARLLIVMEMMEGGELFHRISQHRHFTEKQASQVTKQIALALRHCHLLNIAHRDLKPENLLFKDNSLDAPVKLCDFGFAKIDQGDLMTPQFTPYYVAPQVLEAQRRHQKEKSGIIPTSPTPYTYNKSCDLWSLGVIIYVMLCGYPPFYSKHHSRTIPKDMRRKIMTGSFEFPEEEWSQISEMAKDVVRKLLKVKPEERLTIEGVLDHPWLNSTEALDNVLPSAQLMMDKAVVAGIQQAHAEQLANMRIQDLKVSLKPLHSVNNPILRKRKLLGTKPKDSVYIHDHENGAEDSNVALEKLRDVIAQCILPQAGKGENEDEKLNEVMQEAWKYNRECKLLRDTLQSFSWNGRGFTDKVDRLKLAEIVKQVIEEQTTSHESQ
# condition-parameters: at 0.1 µM
readout-type: inhibition (%)
Report the figure in % without appending any unit label.

Known results for compounds:
structure | numeric-readout
CN1CCN(CCCNc2nc3ccc(Oc4ccc(NC(=O)Nc5cc(C(F)(F)F)ccc5F)cc4)cc3[nH]2)CC1 | -0.1
COc1cc2ncn(-c3cc(OCCc4ccccc4)c(C(N)=O)s3)c2cc1OC | 0.21
O=C(Nc1n[nH]c2cc(-c3ccccc3)ccc12)C1CC1 | 1.27

Kindly review the next compound as well.
stdin: Requested read-out inhibition, target or system MAP kinase-activated protein kinase 5 (Homo sapiens) (UniProt Q8IW41), entry CS(=O)(=O)CCNCc1cc(-c2cc3c(Nc4ccc(OCc5cccc(F)c5)c(Cl)c4)ncnc3s2)cs1;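 also: reported values are mean PRAK inhibition figures from the GSK PKIS screen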
stdout: 2.2

====

Attribute: inhibition
# assay-target: Ephrin type-A receptor 2 (Homo sapiens);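 also: reported values are mean percent inhibition of EPHA2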
# condition-parameters: at 0.1 µM
Report the figure in % without appending any unit label.

Known results for compounds:
compound | assay-target | unit-text | inhibition
O=C1Nc2ccccc2/C1=C/Nc1ccc(-n2cncn2)cc1 | Ephrin type-A receptor 2 (Homo sapiens) | % | 1.55
NC(=O)c1cc(-c2ccncc2)cc(-c2ccccc2)c1N | Ephrin type-A receptor 2 (Homo sapiens) | % | 15.2
COc1cc(Nc2ncc3c(C)nc(-c4cccc(C(F)(F)F)c4)n3n2)cc(OC)c1OC | Ephrin type-A receptor 2 (Homo sapiens) | % | 4.32
CCC(=O)Nc1ccc(C)c(-c2ccc(C(=O)NCC3CC3)cc2)c1 | Ephrin type-A receptor 2 (Homo sapiens) | % | -1.79
CS(=O)(=O)CCNCc1ccc(-c2ccc3ncnc(Nc4ccc(OCc5ccccc5)c(Br)c4)c3c2)o1 | Ephrin type-A receptor 2 (Homo sapiens) | % | -1.09
O=C(Nc1n[nH]c2nc(-c3ccco3)ccc12)C1CC1 | Ephrin type-A receptor 2 (Homo sapiens) | % | -1.58
Clc1ccc(CNc2nccc(-c3cnn4ncccc34)n2)cc1 | Ephrin type-A receptor 2 (Homo sapiens) | % | 1.88
COc1cccc(-n2cnc3c(N/N=C/c4ccncc4)ncnc32)c1 | Ephrin type-A receptor 2 (Homo sapiens) | % | -0.82
Fc1ccc(-c2ncn(CCCN3CCOCC3)c2-c2ccncc2)cc1 | Ephrin type-A receptor 2 (Homo sapiens) | % | 0.95
Cc1nnc(-c2ccc(C)c(-c3ccc(C(=O)NCc4ccc(Cl)cc4)cc3)c2)o1 | Ephrin type-A receptor 2 (Homo sapiens) | % | -3.78

stdin: // returns reported inhibition for input CS(=O)(=O)CCNCc1cc(-c2cc3c(Nc4ccc(OCc5cccc(F)c5)c(Cl)c4)ncnc3s2)cs1
stdout: 0.54

stdin: // returns reported inhibition for input Cc1ccc(C(=O)NC(C)C)cc1-c1ccc(C(=O)NCC2CC2)cc1
stdout: -1.78

stdin: // returns reported inhibition for input FC(F)(F)c1cccc(Nc2nccc(-c3cnn4nc(-c5ccccc5)ccc34)n2)c1
stdout: 2

stdin: // returns reported inhibition for input NC(=O)Cc1ccccc1Oc1nccc(-c2c(-c3ccc(F)cc3)ncn2C2CCNCC2)n1
stdout: -0.02

stdin: // returns reported inhibition for input O=C(Nc1n[nH]c2nc(-c3ccc(O)cc3)c(Br)cc12)C1CC1
stdout: 4.79

stdin: // returns reported inhibition for input Cc1ccc(NC(=O)c2ccoc2)cc1-c1ccc(C(=O)NCC2CC2)cc1
stdout: 0.92

stdin: // returns reported inhibition for input NC(=O)c1ccc(Oc2nccc(-c3c(-c4ccc(F)cc4)ncn3C3CCNCC3)n2)cc1
stdout: 2.58

stdin: // returns reported inhibition for input COc1ccc2cc(-c3c(-c4ccncc4)nc(-c4ccc(S(C)(=O)=O)cc4C)n3C)ccc2c1
stdout: 0.22

stdin: // returns reported inhibition for input COc1cccc(/C=N/Nc2ncnc3c2cnn3-c2cccc(OC)c2)c1
stdout: -1.3

stdin: // returns reported inhibition for input CN(C)c1ccc2c(c1)/C(=C/Nc1ccc(S(N)(=O)=O)cc1)C(=O)N2
stdout: -2.54

====

Attribute: inhibition
# Test system: Epidermal growth factor receptor (Homo sapiens), P00533 [L858R]
# Sequence (P00533 whole entry L858R): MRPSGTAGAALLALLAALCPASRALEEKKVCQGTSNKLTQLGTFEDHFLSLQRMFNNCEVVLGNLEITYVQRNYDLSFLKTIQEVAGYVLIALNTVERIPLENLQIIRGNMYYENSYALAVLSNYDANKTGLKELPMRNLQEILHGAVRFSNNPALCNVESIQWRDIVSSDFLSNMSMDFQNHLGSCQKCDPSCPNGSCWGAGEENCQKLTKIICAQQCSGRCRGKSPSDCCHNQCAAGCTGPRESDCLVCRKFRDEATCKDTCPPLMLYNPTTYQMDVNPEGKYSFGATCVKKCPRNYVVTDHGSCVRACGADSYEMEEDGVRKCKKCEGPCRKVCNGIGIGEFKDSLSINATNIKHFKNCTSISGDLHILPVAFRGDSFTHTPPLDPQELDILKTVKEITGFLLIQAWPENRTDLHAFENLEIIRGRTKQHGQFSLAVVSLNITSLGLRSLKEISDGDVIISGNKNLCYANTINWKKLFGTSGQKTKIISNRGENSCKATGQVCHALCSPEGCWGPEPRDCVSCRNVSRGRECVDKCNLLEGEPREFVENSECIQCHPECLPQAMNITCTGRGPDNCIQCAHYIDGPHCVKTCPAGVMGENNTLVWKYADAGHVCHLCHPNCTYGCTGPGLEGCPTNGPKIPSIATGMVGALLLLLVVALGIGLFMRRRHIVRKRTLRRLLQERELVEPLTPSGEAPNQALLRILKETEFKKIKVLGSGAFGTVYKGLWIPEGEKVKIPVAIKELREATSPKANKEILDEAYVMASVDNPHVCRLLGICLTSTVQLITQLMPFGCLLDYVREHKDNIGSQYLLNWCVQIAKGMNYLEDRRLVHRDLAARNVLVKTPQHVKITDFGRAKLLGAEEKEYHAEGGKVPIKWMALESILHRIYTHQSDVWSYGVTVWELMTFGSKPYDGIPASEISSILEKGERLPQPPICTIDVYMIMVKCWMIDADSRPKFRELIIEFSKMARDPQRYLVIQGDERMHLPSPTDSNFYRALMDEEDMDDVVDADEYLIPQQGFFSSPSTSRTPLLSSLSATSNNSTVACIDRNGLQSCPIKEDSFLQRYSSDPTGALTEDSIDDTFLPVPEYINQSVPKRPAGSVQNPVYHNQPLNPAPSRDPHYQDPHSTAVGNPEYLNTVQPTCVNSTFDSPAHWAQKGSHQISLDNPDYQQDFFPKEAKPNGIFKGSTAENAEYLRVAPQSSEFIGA
# condition-parameters: at 0.1 µM
Report the figure in % without appending any unit label.

molecule | unit-text | inhibition
CN1CCN(CCCNc2nc3ccc(Oc4ccc(NC(=O)Nc5cc(C(F)(F)F)ccc5F)cc4)cc3[nH]2)CC1 | % | 1
CCN(CC)Cc1ccc(Nc2nccc(-c3cnn4ncccc34)n2)cc1 | % | -0.85
COc1cc(Nc2ncc3c(C)nc(-c4cccc(C(F)(F)F)c4)n3n2)cc(OC)c1OC | % | 4.13
Fc1ccc(-c2c(-c3ccncc3)nc3n2CCS3)cc1 | % | 3.61
Nc1nccc(-c2c(-c3ccc(F)cc3)ncn2C2CCC(O)CC2)n1 (stereo not given) | % | 18.4
O=C1NC(=O)C(c2cccc(Cl)c2)=C1Nc1ccc(Cl)c(C(=O)O)c1 | % | 1.51
CCc1ccc(Oc2nccc(-c3c(-c4ccc(F)cc4)ncn3C3CCNCC3)n2)cc1 | % | 3.05
O=C(Nc1n[nH]c2cc(-c3cc(F)ccc3F)ccc12)C1CC1 | % | 1.19
COc1cccc(-n2cnc3c(N/N=C/c4ccncc4)ncnc32)c1 | % | 5.72

stdin: // returns reported inhibition for input CN(C)c1ccc2c(c1)/C(=C/Nc1ccc(S(N)(=O)=O)cc1)C(=O)N2
stdout: 1.25
